Attribution: ChEMBL document CHEMBL1781986

- tgt: Adenosine receptor A1 (Homo sapiens)
- testMethodNotes: Inhibition of human recombinant A1 receptor at 10 uM by radioligand binding assay
Active and inactive are the calls of the source. The rule behind the calls is not given here.
Respond using exactly one of the listed classes: active, inactive

INSERT INTO measurements (substancesmiles, tgt, grouplabel) VALUES
  ('COc1ccc(-c2ccn(-c3ccc(O)c([N+](=O)[O-])c3)c2-c2ccc(C(N)=O)cc2C)cc1', 'Adenosine receptor A1 (Homo sapiens)', 'active');

// param item: Cc1cc(C(N)=O)ccc1-c1c(CCC(=O)O)ccn1-c1ccc(-n2ccnc2)cc1 ; yields the recorded call
inactive

Query: recorded result category for COc1ccc(-c2ccn(-c3ccc(C(=O)O)c(O)c3)c2-c2ccc(C(N)=O)cc2C)cc1 in this test
active

Tell me the assay call for Cc1cc(C(N)=O)ccc1-c1c(-c2ccc(-n3ccnc3)cc2)ccn1CCC(=O)O please.
inactive

Please share the test call associated with Cc1cc(C(N)=O)ccc1-n1c(CCC(=O)O)ccc1-c1ccc(-n2ccnc2)cc1 .
inactive

----------
- tgt: Cannabinoid receptor 1 (Homo sapiens)
- testMethodNotes: Inhibition of human recombinant CB1 receptor at 10 uM by radioligand binding assay
The source made the active and inactive calls. The calls are words filed in the database; no cut-off is given here.
Can you answer with just one of these options? active, inactive

INSERT INTO measurements (compound, tgt, grouplabel) VALUES
  ('Cc1cc(C(N)=O)ccc1-c1c(-c2ccc(-n3ccnc3)cc2)ccn1CCC(=O)O', 'Cannabinoid receptor 1 (Homo sapiens)', 'inactive');

Give the logged outcome of this assay for the following compound: COc1ccc(-c2ccn(-c3ccc(C(=O)O)c(O)c3)c2-c2ccc(C(N)=O)cc2C)cc1
active

Field: outcome | Entry: Cc1cc(C(N)=O)ccc1-n1c(CCC(=O)O)ccc1-c1ccc(-n2ccnc2)cc1 [N6022]
inactive

Test call for this compound, please: Cc1cc(C(N)=O)ccc1-c1c(CCC(=O)O)ccn1-c1ccc(-n2ccnc2)cc1
inactive

Which outcome did this test record for the compound COc1ccc(-c2ccn(-c3ccc(O)c([N+](=O)[O-])c3)c2-c2ccc(C(N)=O)cc2C)cc1 ?
active

----------
- tgt: Adrenergic receptor alpha-2 (Homo sapiens) (UniProt P08913+P18825+P18089)
- testMethodNotes: Inhibition of human recombinant alpha2 receptor at 10 uM by radioligand binding assay
Calls of active or inactive are those of the source. No cut-off for these calls is given here.
# output must be one of yes = active, no = inactive

Some entries whose results are on file:
INSERT INTO results (substancesmiles, grouplabel) VALUES
  ('Cc1cc(C(N)=O)ccc1-n1c(CCC(=O)O)ccc1-c1ccc(-n2ccnc2)cc1', 'no'),
  ('Cc1cc(C(N)=O)ccc1-c1c(-c2ccc(-n3ccnc3)cc2)ccn1CCC(=O)O', 'no'),
  ('COc1ccc(-c2ccn(-c3ccc(O)c([N+](=O)[O-])c3)c2-c2ccc(C(N)=O)cc2C)cc1', 'yes'),
  ('Cc1cc(C(N)=O)ccc1-c1c(CCC(=O)O)ccn1-c1ccc(-n2ccnc2)cc1', 'no');

Now let's try a different one.
For this compound, state the assay outcome: COc1ccc(-c2ccn(-c3ccc(C(=O)O)c(O)c3)c2-c2ccc(C(N)=O)cc2C)cc1
yes

----------
- tgt: 5-hydroxytryptamine receptor 5A (Homo sapiens)
- testMethodNotes: Inhibition of human recombinant 5HT5A receptor at 10 uM by radioligand binding assay
The source made the active and inactive calls. The rule behind the calls is not given here.
testReadout: inhibition

Please review the following examples before continuing.
INSERT INTO measurements (substancesmiles, measuredresult) VALUES
  ('Cc1cc(C(N)=O)ccc1-n1c(CCC(=O)O)ccc1-c1ccc(-n2ccnc2)cc1', 'inactive'),
  ('Cc1cc(C(N)=O)ccc1-c1c(-c2ccc(-n3ccnc3)cc2)ccn1CCC(=O)O', 'inactive'),
  ('COc1ccc(-c2ccn(-c3ccc(O)c([N+](=O)[O-])c3)c2-c2ccc(C(N)=O)cc2C)cc1', 'Active'),
  ('Cc1cc(C(N)=O)ccc1-c1c(CCC(=O)O)ccn1-c1ccc(-n2ccnc2)cc1', 'inactive');

# ---- query compound ----
Which inhibition reading was recorded for the compound COc1ccc(-c2ccn(-c3ccc(C(=O)O)c(O)c3)c2-c2ccc(C(N)=O)cc2C)cc1 ?
Active

----------
- tgt: Sodium-dependent dopamine transporter (Homo sapiens) (UniProt Q01959)
- Sequence (Q01959 whole entry): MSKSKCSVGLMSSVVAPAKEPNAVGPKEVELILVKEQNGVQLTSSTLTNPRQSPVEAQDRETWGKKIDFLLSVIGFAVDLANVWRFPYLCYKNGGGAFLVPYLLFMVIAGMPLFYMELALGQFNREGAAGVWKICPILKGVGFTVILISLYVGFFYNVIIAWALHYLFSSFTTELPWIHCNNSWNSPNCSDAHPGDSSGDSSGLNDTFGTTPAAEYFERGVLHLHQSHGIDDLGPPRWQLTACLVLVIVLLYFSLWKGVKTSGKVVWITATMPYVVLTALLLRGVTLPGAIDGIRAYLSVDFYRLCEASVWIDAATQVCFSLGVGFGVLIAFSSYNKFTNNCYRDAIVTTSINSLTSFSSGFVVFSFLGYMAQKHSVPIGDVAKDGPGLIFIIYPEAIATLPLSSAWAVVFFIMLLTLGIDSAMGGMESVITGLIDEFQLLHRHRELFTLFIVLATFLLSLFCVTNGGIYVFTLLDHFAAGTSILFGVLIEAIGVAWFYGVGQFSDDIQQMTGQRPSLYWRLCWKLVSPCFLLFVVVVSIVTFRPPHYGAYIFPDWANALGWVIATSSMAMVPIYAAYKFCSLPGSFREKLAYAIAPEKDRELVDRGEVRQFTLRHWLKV
- testMethodNotes: Inhibition of human recombinant DAT at 10 uM by radioligand binding assay
The source made the active and inactive calls. The calls are words filed in the database; no cut-off is given here.
testReadout: inhibition

INSERT INTO assay_data (substancesmiles, tgt, testreadout, measuredresult) VALUES
  ('Cc1cc(C(N)=O)ccc1-n1c(CCC(=O)O)ccc1-c1ccc(-n2ccnc2)cc1', 'Sodium-dependent dopamine transporter (Homo sapiens) (UniProt Q01959)', 'inhibition', 'inactive'),
  ('Cc1cc(C(N)=O)ccc1-c1c(CCC(=O)O)ccn1-c1ccc(-n2ccnc2)cc1', 'Sodium-dependent dopamine transporter (Homo sapiens) (UniProt Q01959)', 'inhibition', 'inactive'),
  ('Cc1cc(C(N)=O)ccc1-c1c(-c2ccc(-n3ccnc3)cc2)ccn1CCC(=O)O', 'Sodium-dependent dopamine transporter (Homo sapiens) (UniProt Q01959)', 'inhibition', 'inactive'),
  ('COc1ccc(-c2ccn(-c3ccc(C(=O)O)c(O)c3)c2-c2ccc(C(N)=O)cc2C)cc1', 'Sodium-dependent dopamine transporter (Homo sapiens) (UniProt Q01959)', 'inhibition', 'Active');

The record that follows has no inhibition shown yet.
Look at this compound and give its reported inhibition. COc1ccc(-c2ccn(-c3ccc(O)c([N+](=O)[O-])c3)c2-c2ccc(C(N)=O)cc2C)cc1
Active

----------
- tgt: UniProt P50406
- Sequence (P50406 whole entry): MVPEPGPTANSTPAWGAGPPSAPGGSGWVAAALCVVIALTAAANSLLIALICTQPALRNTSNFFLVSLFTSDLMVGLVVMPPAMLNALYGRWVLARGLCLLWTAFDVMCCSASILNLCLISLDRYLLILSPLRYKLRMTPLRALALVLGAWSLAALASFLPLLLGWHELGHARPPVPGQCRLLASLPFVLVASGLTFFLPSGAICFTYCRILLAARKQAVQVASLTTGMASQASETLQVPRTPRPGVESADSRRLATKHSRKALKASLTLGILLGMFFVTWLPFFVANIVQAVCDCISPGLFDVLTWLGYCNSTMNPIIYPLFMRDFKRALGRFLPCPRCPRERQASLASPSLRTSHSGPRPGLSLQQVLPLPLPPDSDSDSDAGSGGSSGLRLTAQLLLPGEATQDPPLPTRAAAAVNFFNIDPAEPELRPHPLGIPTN
- testMethodNotes: Inhibition of human recombinant 5HT6 receptor at 10 uM by radioligand binding assay
Active and inactive are the calls of the source. No cut-off for these calls is given here.
Reply using exactly one outcome from active, inactive

Reference set, count: 4
INSERT INTO measurements (compound, grouplabel) VALUES
  ('Cc1cc(C(N)=O)ccc1-c1c(-c2ccc(-n3ccnc3)cc2)ccn1CCC(=O)O', 'inactive'),
  ('Cc1cc(C(N)=O)ccc1-c1c(CCC(=O)O)ccn1-c1ccc(-n2ccnc2)cc1', 'inactive'),
  ('COc1ccc(-c2ccn(-c3ccc(O)c([N+](=O)[O-])c3)c2-c2ccc(C(N)=O)cc2C)cc1', 'active'),
  ('COc1ccc(-c2ccn(-c3ccc(C(=O)O)c(O)c3)c2-c2ccc(C(N)=O)cc2C)cc1', 'active');

I'd appreciate the recorded outcome for Cc1cc(C(N)=O)ccc1-n1c(CCC(=O)O)ccc1-c1ccc(-n2ccnc2)cc1 [N6022] from this test.
inactive

----------
- System: 5-hydroxytryptamine receptor 2A
- testMethodNotes: Inhibition of human recombinant 5HT2A receptor at 10 uM by radioligand binding assay
The source made the active and inactive calls. The rule behind the calls is not given here.
Bench note: report the call from active, inactive

INSERT INTO measurements (substancesmiles, grouplabel) VALUES
  ('Cc1cc(C(N)=O)ccc1-c1c(CCC(=O)O)ccn1-c1ccc(-n2ccnc2)cc1', 'inactive'),
  ('Cc1cc(C(N)=O)ccc1-c1c(-c2ccc(-n3ccnc3)cc2)ccn1CCC(=O)O', 'inactive'),
  ('COc1ccc(-c2ccn(-c3ccc(C(=O)O)c(O)c3)c2-c2ccc(C(N)=O)cc2C)cc1', 'active');

Each molecule tested received a call. Report the one for COc1ccc(-c2ccn(-c3ccc(O)c([N+](=O)[O-])c3)c2-c2ccc(C(N)=O)cc2C)cc1 .
active

----------
- tgt: Muscarinic acetylcholine receptor M2 (Homo sapiens)
- testMethodNotes: Inhibition of human recombinant M2 receptor at 10 uM by radioligand binding assay
Activity calls are given as the source filed them. No cut-off for these calls is given here.
Choose the fitting class; nothing outside active, inactive is accepted.

INSERT INTO results (substancesmiles, grouplabel) VALUES
  ('Cc1cc(C(N)=O)ccc1-c1c(-c2ccc(-n3ccnc3)cc2)ccn1CCC(=O)O', 'inactive'),
  ('Cc1cc(C(N)=O)ccc1-c1c(CCC(=O)O)ccn1-c1ccc(-n2ccnc2)cc1', 'inactive'),
  ('COc1ccc(-c2ccn(-c3ccc(C(=O)O)c(O)c3)c2-c2ccc(C(N)=O)cc2C)cc1', 'active'),
  ('COc1ccc(-c2ccn(-c3ccc(O)c([N+](=O)[O-])c3)c2-c2ccc(C(N)=O)cc2C)cc1', 'active');

// next entry
Would you mind telling me which call this test gave Cc1cc(C(N)=O)ccc1-n1c(CCC(=O)O)ccc1-c1ccc(-n2ccnc2)cc1 ?
inactive

----------
- tgt: UniProtKB P25021
- Sequence (P25021 whole entry): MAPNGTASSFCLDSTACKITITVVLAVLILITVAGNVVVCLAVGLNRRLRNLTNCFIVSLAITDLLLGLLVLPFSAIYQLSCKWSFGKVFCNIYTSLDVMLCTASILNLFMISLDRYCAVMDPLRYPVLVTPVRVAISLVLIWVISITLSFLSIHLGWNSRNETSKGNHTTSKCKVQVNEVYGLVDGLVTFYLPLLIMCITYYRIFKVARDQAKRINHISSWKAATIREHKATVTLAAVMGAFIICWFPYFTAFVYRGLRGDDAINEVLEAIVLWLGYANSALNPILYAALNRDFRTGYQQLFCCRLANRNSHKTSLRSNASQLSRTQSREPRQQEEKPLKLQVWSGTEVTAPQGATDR
- testMethodNotes: Inhibition of human recombinant H2 receptor at 10 uM by radioligand binding assay
Active and inactive are the calls of the source. The rule behind the calls is not given here.
# valid calls are yes (1) = active, no (0) = inactive; nothing else

Past entries and their recorded results:
INSERT INTO assay_data (molecule, grouplabel) VALUES
  ('COc1ccc(-c2ccn(-c3ccc(O)c([N+](=O)[O-])c3)c2-c2ccc(C(N)=O)cc2C)cc1', 'yes (1)'),
  ('Cc1cc(C(N)=O)ccc1-n1c(CCC(=O)O)ccc1-c1ccc(-n2ccnc2)cc1 [N6022]', 'no (0)'),
  ('Cc1cc(C(N)=O)ccc1-c1c(CCC(=O)O)ccn1-c1ccc(-n2ccnc2)cc1', 'no (0)');

Which outcome was entered for the molecule Cc1cc(C(N)=O)ccc1-c1c(-c2ccc(-n3ccnc3)cc2)ccn1CCC(=O)O in this test?
no (0)

For this molecule, state the assay outcome: COc1ccc(-c2ccn(-c3ccc(C(=O)O)c(O)c3)c2-c2ccc(C(N)=O)cc2C)cc1
yes (1)
